Reported IC50 against High affinity nerve growth factor receptor (Homo sapiens, UniProt P04629), gathered from multiple publications, appears below.

smiles_text=Cc1c(Cl)cccc1OC[C@H](O)CNc1cc[nH]c(=O)c1-c1nc2cc3c(cc2[nH]1)C(=O)N(C1CCN(C)CC1)C3 experimental_target="High affinity nerve growth factor receptor (Homo sapiens, UniProt P04629)" measured_property=IC50 value_observed="< 500 nM"
smiles_text=CCOc1ccc(Nc2ccc(Cc3c[nH]c4ncnc(C)c34)c(F)n2)cn1 experimental_target="High affinity nerve growth factor receptor (Homo sapiens, UniProt P04629)" measured_property=IC50 value_observed="< 100 nM"
smiles_text=Cn1ncc2c(C#Cc3cccc(NC(=O)c4cccc(C(F)(F)F)c4)c3)cncc21 experimental_target="High affinity nerve growth factor receptor (Homo sapiens, UniProt P04629)" measured_property=IC50 value_observed="≥ 10000 nM"

Query block: Entry `COCCN1C[C@@H](NC(=O)Nc2c(C)c(-c3cnn(C(C)C)c3)nn2-c2ccccc2)[C@H](c2ccc(F)cc2)C1` , system High affinity nerve growth factor receptor (Homo sapiens, UniProt P04629): what IC50 was measured?
Result block: < 100 nM

====

Multiple publications report pIC50 for High affinity nerve growth factor receptor (Homo sapiens, UniProt P04629); what follows is a combined list.
pIC50: −log10 of the molar value.

Sample records with pIC50:
compound=COc1ncnc2[nH]cc(Cc3ccc(NCc4ccc(C(F)(F)F)nc4)nc3)c12 measured_property=pIC50 value_observed="≥ 5.00"
compound="CCC(Oc1ccc(Cn2c(N)nc3cc(-c4cnn(C)c4)cnc32)cc1OC)c1ccc(OC)nc1 (stereo not drawn)" measured_property=pIC50 value_observed=7.49
compound=COCCN1C[C@@H](NC(=O)Nc2c(Br)c(C3CCOCC3)nn2-c2ccccc2)[C@H](c2ccc(F)cc2)C1 measured_property=pIC50 value_observed="> 7.00"
compound="CC(Oc1cc(-c2ccc(C(N)=O)c(N3CCN(C4CCCCC4)CC3)c2)cc2[nH]nc(N)c12)C(F)(F)F (stereo not drawn)" measured_property=pIC50 value_observed=7.57
compound=COCCN1C[C@@H](NC(=O)Nc2c(C)c(OC[C@@H]3COC(C)(C)O3)nn2-c2ccccc2)[C@H](c2cc(F)c(F)c(F)c2)C1 measured_property=pIC50 value_observed="> 7.00"

Query block: Give the reported pIC50 for `COCCN1C[C@@H](NC(=O)Nc2c(C)c(-c3ccccc3)nn2-c2ccccc2)[C@H](c2ccc(F)c(F)c2)C1` (system: High affinity nerve growth factor receptor (Homo sapiens, UniProt P04629)).
Result block: > 7.00

Query block: Find the measured pIC50: item `C[C@H]1CNC(=O)c2cnn3c(N)c(-c4ccccc4F)c(nc23)NCc2cc(F)cnc2O1` , target or system High affinity nerve growth factor receptor (Homo sapiens, UniProt P04629).
Result block: 7.00

Query block: Under High affinity nerve growth factor receptor (Homo sapiens, UniProt P04629): pIC50 value of `Cn1cc(-c2cnc3[nH]cc(Cc4cc(Cl)c(OCc5nc6ccccc6[nH]5)cc4F)c3c2)cn1` ?
Result block: ≥ 5.00

Query block: API: value(readout=pIC50, system=High affinity nerve growth factor receptor (Homo sapiens, UniProt P04629)) for record `CCOc1cc(-n2cnc3ccc(N[C@@H](CO)c4ccc(F)cn4)nc32)n[nH]1`
Result block: 8.52

Query block: GET /values?readout=pIC50&system=High affinity nerve growth factor receptor (Homo sapiens, UniProt P04629)&item= `CCc1ccc(Nc2ccc(C(=O)c3c[nH]c4ncnc(NC5CCOCC5)c34)c(F)n2)cn1`
Result block: > 8.00

Query block: # value lookup — system High affinity nerve growth factor receptor (Homo sapiens, UniProt P04629), readout pIC50, item `Cc1cc(NC(=O)N[C@@H]2c3ccccc3C(C)(C)C[C@H]2O)c(-c2ccccc2)nc1-c1cnc(C(C)(C)O)nc1`
Result block: ≥ 7.30

Query block: Tell me reported pIC50 for `COc1cc(Cc2c[nH]c3ncc(Cl)cc23)c(F)cc1OCc1nc2cc(Cl)c(Cl)cc2[nH]1` , tested with High affinity nerve growth factor receptor (Homo sapiens, UniProt P04629).
Result block: ≥ 5.00

Query block: What value of pIC50 on High affinity nerve growth factor receptor (Homo sapiens, UniProt P04629) does `NC(=O)c1ccc(-c2cc(OC3CCCC3)c3c(N)n[nH]c3c2)cc1N1CCN(c2ccccn2)CC1` have?
Result block: 8.64

Query block: Param readout= pIC50; system= High affinity nerve growth factor receptor (Homo sapiens, UniProt P04629); entry= `COCC(F)(F)Cc1cc(Cl)c(Cl)cc1NC(=O)Nc1c(C)c(-c2ccc(=O)n(C)c2)nn1-c1ccccc1` ; returns value.
Result block: > 7.00

Query block: Under High affinity nerve growth factor receptor (Homo sapiens, UniProt P04629): pIC50 value of `COCCN1C[C@@H](NC(=O)Nc2c3c(nn2-c2ccccc2)CSC3)[C@H](c2ccc(F)c(F)c2)C1` ?
Result block: > 7.00
